measurement target: human Cdc7/human ASK complex protein (Homo sapiens (Human))
Sequence (O00311 whole entry): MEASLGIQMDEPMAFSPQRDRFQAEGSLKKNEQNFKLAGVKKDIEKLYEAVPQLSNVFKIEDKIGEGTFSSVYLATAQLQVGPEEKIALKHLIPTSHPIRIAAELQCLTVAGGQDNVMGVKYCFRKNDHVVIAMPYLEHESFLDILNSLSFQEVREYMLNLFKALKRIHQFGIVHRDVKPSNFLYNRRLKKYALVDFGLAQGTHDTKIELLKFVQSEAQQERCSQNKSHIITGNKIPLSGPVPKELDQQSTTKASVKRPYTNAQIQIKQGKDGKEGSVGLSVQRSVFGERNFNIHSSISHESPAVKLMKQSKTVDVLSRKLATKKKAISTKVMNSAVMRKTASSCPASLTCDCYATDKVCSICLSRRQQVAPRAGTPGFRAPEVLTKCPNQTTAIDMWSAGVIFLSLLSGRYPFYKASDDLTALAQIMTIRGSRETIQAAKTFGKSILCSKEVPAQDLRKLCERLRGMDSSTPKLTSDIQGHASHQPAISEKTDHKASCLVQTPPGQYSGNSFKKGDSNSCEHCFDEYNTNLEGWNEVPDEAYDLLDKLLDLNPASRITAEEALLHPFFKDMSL
Sequence (Q9UBU7 whole entry partner): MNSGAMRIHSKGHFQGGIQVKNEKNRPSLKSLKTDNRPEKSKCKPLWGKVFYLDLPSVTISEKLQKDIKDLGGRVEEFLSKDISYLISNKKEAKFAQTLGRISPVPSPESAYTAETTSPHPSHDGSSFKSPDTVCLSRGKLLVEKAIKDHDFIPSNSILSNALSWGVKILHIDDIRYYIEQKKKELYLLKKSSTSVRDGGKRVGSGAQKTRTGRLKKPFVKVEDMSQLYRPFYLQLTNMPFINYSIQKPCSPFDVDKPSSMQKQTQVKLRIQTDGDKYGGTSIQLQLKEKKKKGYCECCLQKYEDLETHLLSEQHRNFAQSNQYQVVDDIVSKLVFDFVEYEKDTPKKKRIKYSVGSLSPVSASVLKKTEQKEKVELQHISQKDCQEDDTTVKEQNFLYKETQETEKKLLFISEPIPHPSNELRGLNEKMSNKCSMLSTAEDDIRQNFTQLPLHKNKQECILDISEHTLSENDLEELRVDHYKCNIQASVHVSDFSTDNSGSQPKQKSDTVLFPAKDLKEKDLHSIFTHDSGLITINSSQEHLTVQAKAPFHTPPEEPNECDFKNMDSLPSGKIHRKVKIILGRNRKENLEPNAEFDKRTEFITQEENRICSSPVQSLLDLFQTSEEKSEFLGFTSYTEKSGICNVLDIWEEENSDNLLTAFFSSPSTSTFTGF
protocol: Inhibitory effect on Cdc7 protein kinase (MSA assay kit)
Type: biochemical
condition description: human Cdc7/human ASK complex, FITC-labeled MCM2 peptide substrate, reaction 5 hours at room temperature; read-out: Test Example 1 Cdc7 IC50 value
Description: [Inhibitory Effect on Cdc7 Protein Kinase] Measurement of kinase activity was carried out using an MSA assay kit (QuickScout Screening Assist™ Kit, Carna Biosciences, Inc.). […] The IC50 value of a tested compound was calculated by regression analysis of the percent inhibition values versus the (logarithmic) concentrations of the tested compound.

| compound | value unit | IC50 |
| --- | --- | --- |
| O=C1C=C(NC2CCCCCC2)O/C1=C\c1c[nH]c2ncccc12 [Example 226] | nM | 4 |
| CCOC(=O)C1=C(Nc2ccc(NCCO)cc2C)O/C(=C\c2c[nH]c3ncccc23)C1=O [Example 126] | nM | 3 |
| CCOC(=O)C1=C(Nc2ccc(CN(C)C)cc2C)O/C(=C\c2c[nH]c3ncccc23)C1=O [Example 129] | nM | 9 |
| CN(C)CCOC(=O)C1=C(Nc2ccc(F)cc2F)O/C(=C\c2c[nH]c3ncccc23)C1=O [Example 91] | nM | 4 |
